The measurements presented in this section are drawn from PubChem BioAssay AID1159580.

# experimental-protocol: chemical genetic growth profiling, strain panel (AID 1159580);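 further: tested at 20 µM; growth read once vehicle control cultures reached saturation at 30 °C; 1 = growth at the plate median or of vehicle wells; lower values mean less growth of the strain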
# condition-parameters: S. cerevisiae deletion strains, growth OD, locus YPL055C, strain LGE1, stronger effect = lower value
The campaign covered roughly 5,500 compounds. About 2,000 (36%) were called active. Roughly 18% stayed inconclusive and do not appear here. This is one part of the list.
assay-metric: normalized growth
In your answer, state the number alone without any accompanying words.

Solved cases below.
1. O=C(N/N=C\C=C\c1ccccc1)c1ccccc1-n1cccc1 | 0.899
2. N=c1c[n+](N2CCOCC2)[n-]o1 | 1.02
3. C=CCC1(C(C)CCC)C(=O)N=C(S)NC1=O (stereo not drawn) | 1.02
4. O=C(O)CCCCC1CCSS1 (stereo not drawn) | 1
5. CCCC(C)C1(CC)C(=O)NC(=O)NC1=O (stereo not drawn) | 1.04

Task: Please look up its normalized growth: O=C(O)CCCC[C@@H]1CCSS1
Output: 0.989

Task: Please look up its normalized growth: COc1cc(C(=O)NCc2ccc(OCCN(C)C)cc2)cc(OC)c1OC
Output: 0.931

Task: Please look up its normalized growth: CN(C)C(N)=NCCC[C@H](N)C(=O)O
Output: 1.03

Task: Please look up its normalized growth: C[C@H]1[C@H]2CCC3C4CC=C5C[C@@H](N(C)C)CC[C@]5(C)C4CC[C@@]32CN1C (stereo partly drawn)
Output: 0.952

Task: Please look up its normalized growth: Oc1c(Cl)cc(Cl)c2cccnc12
Output: 0.0675

---

# experimental-protocol: chemical genetic growth profiling, strain panel (AID 1159580)
# condition-parameters: S. cerevisiae deletion strains, growth OD, locus YNL322C, strain KRE1, stronger effect = lower value
About 2,000 (36%) of roughly 5,500 compounds were called active. Not shown: some 18% with an inconclusive outcome. The list shows a part of the results.
normalized growth values by entry
In your answer, state the number alone without any accompanying words.

Solved cases below.
1. CCCCNC(=O)NCCSCc1ccco1 | 0.99
2. CC(C)NC[C@@H](O)c1ccc(O)c(O)c1 | 1.01

Task: Please look up its normalized growth: O=[N+]([O-])c1ccc2nsnc2c1
Output: 0.999

Task: Please look up its normalized growth: CNC[C@H](O)c1ccc(O)c(O)c1
Output: 0.997

Task: Please look up its normalized growth: CCCC(C)C1(CC)C(=O)N=C(S)NC1=O (stereo not drawn)
Output: 1.01

Task: Please look up its normalized growth: CC1(C)C(O)CC(O)C2(C)C1CC(O)C1(C)C2CCC2(C)C(c3ccoc3)CC3OC321 (stereo not drawn)
Output: 0.996

Task: Please look up its normalized growth: NCCNC(=O)c1ccc(Cl)cc1
Output: 1.01

---

# experimental-protocol: chemical genetic growth profiling, strain panel (AID 1159580);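 further: tested at 20 µM; growth read once vehicle control cultures reached saturation at 30 °C; 1 = growth at the plate median or of vehicle wells; lower values mean less growth of the strain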
# condition-parameters: S. cerevisiae deletion strains, growth OD, locus YOR061W, strain CKA2
Screen size: about 5,500 compounds; about 2,000 (36%) were called active. Roughly 18% stayed inconclusive and do not appear here. Cut-off read from the data, not from the text of the source: active = normalized growth mostly below about 0.91 (no sharp cut-off); inconclusive = no clear call, values can overlap the other calls; inactive = mostly above about 0.92. The list shows a part of the results.
Lab note: assign the record to one of active, inactive

1) CNc1ccccc1C(=O)O | inactive
2) C=CC(C1=CC(=O)C(OC)=CC1=O)c1ccc(OC)cc1 (centres undefined) | inactive
3) Cc1ccc2cc3c(ccc4ccccc43)c3c2c1CC3 | inactive
4) Cc1ccc(S(=O)(=O)CCSC2=CC(=O)CC(C)(C)S2)cc1 | inactive
5) CC(=O)Nc1cc([As](=O)(O)O)ccc1O | inactive
6) CSc1ccc(/C=C(\C)[N+](=O)[O-])cc1 | active
7) C=CCOc1ccc(/C=C/[N+](=O)[O-])cc1 | active
8) C1CNCCN1 | inactive
9) CC(=O)Nc1ccc(/C=C/[N+](=O)[O-])cc1 | inactive
10) C=CC(C1=CC(=O)C(OC)=CC1=O)c1ccc(O)cc1 (centres undefined) | inactive

Task: Just curious, what result did C=CC(C1=CC(=O)C=CC1=O)c1ccccc1 (centres undefined) get here?
Output: inactive

Task: Just curious, what result did O=[N+]([O-])c1ccc(O)c([N+](=O)[O-])c1 get here?
Output: active

Task: Just curious, what result did COC(=O)[C@]1(C)CC[C@]2(C)CC[C@]3(C)C4=CCc5c(cc(O)c(O)c5C)[C@]4(C)CC[C@@]3(C)C2C1 (some centres undefined) get here?
Output: inactive

Task: Just curious, what result did O=C(O)c1cccnc1Nc1cccc(C(F)(F)F)c1 get here?
Output: inactive

Task: Just curious, what result did C/C(=C\c1ccc2c(c1)OCO2)[N+](=O)[O-] get here?
Output: active

Task: Just curious, what result did O=[N+]([O-])/C=C/c1ccsc1 get here?
Output: active

Task: Just curious, what result did CC(=O)Nc1ccc(S(=O)(=O)Nc2ccc([N+](=O)[O-])cc2)cc1 get here?
Output: inactive

Task: Just curious, what result did C/C=C/c1ccc2c(c1)OCO2 get here?
Output: inactive

Task: Just curious, what result did COC(=O)Oc1ccccc1C(=O)O get here?
Output: inactive

---

# experimental-protocol: chemical genetic growth profiling, strain panel (AID 1159580);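 further: tested at 20 µM; growth read once vehicle control cultures reached saturation at 30 °C; 1 = growth at the plate median or of vehicle wells; lower values mean less growth of the strain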
# condition-parameters: S. cerevisiae deletion strains, growth OD, locus YOR231W, strain MKK1, stronger effect = lower value
The whole screen tested about 5,500 compounds, of which about 2,000 (36%) were called active. About 18% were inconclusive and are not listed. The list shows a part of the results.
assay-metric: normalized growth
In your answer, state the number alone without any accompanying words.

Solved cases below.
1) CCN(CC)CCNC(C(=O)OCCC(C)C)c1ccccc1 (configuration not stated) | 0.978
2) O=C(O)c1ccccc1Nc1cccc(C(F)(F)F)c1 | 0.105
3) CC(C)(C)NC[C@@H](O)COc1nsnc1N1CCOCC1 | 0.988

Task: Please look up its normalized growth: CC(C)(CO)C(O)C(=O)NCCC(=O)NCCSSCCNC(=O)CCNC(=O)C(O)C(C)(C)CO (configuration not stated)
Output: 0.955

Task: Please look up its normalized growth: NCCCC[C@H](N[C@@H](CCc1ccccc1)C(=O)O)C(=O)N1CCC[C@H]1C(=O)O
Output: 1.04

Task: Please look up its normalized growth: Cc1c(C)c(C)c(CSC(N)=Nc2ccc(F)cc2)c(C)c1C
Output: 0.97

Task: Please look up its normalized growth: CN[C@H](CC(=O)O)C(=O)O
Output: 1.1

---

normalized growth values by entry
# experimental-protocol: chemical genetic growth profiling, strain panel (AID 1159580);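 further: tested at 20 µM; growth read once vehicle control cultures reached saturation at 30 °C; 1 = growth at the plate median or of vehicle wells; lower values mean less growth of the strain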
# condition-parameters: S. cerevisiae deletion strains, growth OD, locus YKL085W, strain MDH1, stronger effect = lower value
About 2,000 (36%) of roughly 5,500 compounds were called active. Not shown: some 18% with an inconclusive outcome. Some of the results follow.
In your answer, state the number alone without any accompanying words.

Solved cases below.
1) CCCCC(CC)CN1CN(CC(CC)CCCC)CC(C)(N)C1 (stereo not given) | 0.994
2) Nc1ncnc2c1ncn2C1C[C@H](O)[C@@H](CO)O1 (stereo not given in full) | 0.997
3) CCCCC1=NC2(CCCC2)C(=O)N1Cc1ccc(-c2ccccc2-c2nn[nH]n2)cc1 | 0.986
4) CCCC(C)C1(CC)C(=O)N=C(S)NC1=O (stereo not given) | 0.309

Task: Please look up its normalized growth: CNc1ccccc1C(=O)O
Output: 0.985

Task: Please look up its normalized growth: CCCc1occc(=O)c1/C=C/O
Output: 0.96

Task: Please look up its normalized growth: O[N+]1=CC=CCC1=S.On1ccccc1=S.[Zn]
Output: 0.0543

Task: Please look up its normalized growth: C1CCN2C[C@@H]3C[C@H](CN4CCCC[C@@H]34)[C@H]2C1
Output: 1.02

Task: Please look up its normalized growth: C=C[C@](C)(O)CCC=C(C)C
Output: 0.995

Task: Please look up its normalized growth: C1CNCCN1
Output: 1.01

Task: Please look up its normalized growth: CC(=O)O[C@@H]1CC2C(C)(C)C(=O)CC[C@]2(C)C2CC[C@]3(C)C(=CC(=O)O[C@H]3c3ccoc3)[C@@]21C (stereo not given in full)
Output: 0.995

Task: Please look up its normalized growth: COc1cc(OC)c2c(=O)c(-c3ccccc3)c(C)oc2c1OC
Output: 0.996

Task: Please look up its normalized growth: CC(=O)Oc1ccc(Cl)c2cccnc12
Output: 0.0554

Task: Please look up its normalized growth: Oc1c(I)cc(I)c2cccnc12
Output: 0.253

Task: Please look up its normalized growth: CO[C@H]1/C=C/O[C@@]2(C)Oc3c(C)c(O)c4c(O)c(c(/C=N/N5CCN(C)CC5)c(O)c4c3C2=O)NC(=O)/C(C)=C\C=C\C(C)[C@H](O)[C@@H](C)[C@@H](O)[C@@H](C)[C@@H](OC(C)=O)[C@@H]1C (stereo not given in full)
Output: 1.01

Task: Please look up its normalized growth: O=C(OC1Cc2c(O)cc(O)cc2OC1c1cc(O)c(O)c(O)c1-c1c(C2Oc3cc(O)cc(O)c3CC2OC(=O)c2cc(O)c(O)c(O)c2)cc(O)c(O)c1O)c1cc(O)c(O)c(O)c1 (stereo not given)
Output: 0.991

Task: Please look up its normalized growth: CC1(C)C(=O)C=C[C@@]2(C)C1=C(O)C(=O)[C@]1(C)C2CC[C@@]2(C)[C@H](c3ccoc3)C[C@H]3O[C@]321 (stereo not given in full)
Output: 0.885

Task: Please look up its normalized growth: Nc1ncn([C@@H]2O[C@H](CO)[C@@H](O)[C@H]2O)c(=O)n1
Output: 0.989

Task: Please look up its normalized growth: CC(C)NCC(O)c1ccc(O)c(O)c1 (stereo not given)
Output: 0.994

Task: Please look up its normalized growth: C=CC(C)(O)CC/C=C(\C)CCC=C(C)C (stereo not given)
Output: 0.996

Task: Please look up its normalized growth: CC(Cc1ccc(O)c(O)c1)C(C)Cc1ccc(O)c(O)c1 (stereo not given)
Output: 0.992

Task: Please look up its normalized growth: CC/C(=C(\c1ccccc1)c1ccc(OCCN(C)C)cc1)c1ccccc1
Output: 0.952

Task: Please look up its normalized growth: COc1ccc(C(Cl)=C(c2ccc(OC)cc2)c2ccc(OC)cc2)cc1
Output: 0.98

Task: Please look up its normalized growth: NC[C@H](O)c1ccc(O)c(O)c1
Output: 1.01

Task: Please look up its normalized growth: NCC(O)c1ccc(O)cc1 (stereo not given)
Output: 0.989

Task: Please look up its normalized growth: CC1(C)C(O)CC(O)C2(C)C1CC(=O)C1(C)C2CCC2(C)C(C(=O)O)OC(=O)C3OC321 (stereo not given)
Output: 1
